# assay system: HLA-A*31:01
# experimental protocol: IEDB peptide-MHC binding, purified MHC/competitive/fluorescence; filed as Kd, often an IC50 or EC50 that approximates it; bounds were set here for any values at or beyond the usual limits of such assays
# settings: source organism: Orthomarburgvirus marburgense
assay metric: Kd (µM)
Field format: number, assumed µM, no unit text.

Report Kd for `ALFHKVQSY`
3.92

###

# assay system: HLA-A*03:01
# experimental protocol: IEDB peptide-MHC binding, purified MHC/direct/fluorescence; filed as Kd, often an IC50 or EC50 that approximates it; bounds were set here for any values at or beyond the usual limits of such assays
# settings: source organism: Serratia marcescens
pKd: −log10 of the molar value.
assay metric: pKd

Lab note: record pKd of `LIPDGDGEV` tested on HLA-A*03:01.
≤ 4.70

###

# assay system: HLA-A*11:01
# experimental protocol: IEDB peptide-MHC binding, purified MHC/competitive/fluorescence; bounds were set here for any values at or beyond the usual limits of such assays
# settings: source organism: Variola virus
assay metric: pIC50
Remember, pIC50 is on a log scale: it is -log10 of the molar concentration.

Give the value of pIC50 reported for the following: `VGKTSQVPK`
5.81

###

# assay system: HLA-B*44:02
# experimental protocol: IEDB peptide-MHC binding, purified MHC/direct/fluorescence; filed as Kd, often an IC50 or EC50 that approximates it; bounds were set here for any values at or beyond the usual limits of such assays
# settings: source organism: Yersinia pestis
pKd: −log10 of the molar value.
assay metric: pKd

Supply pKd measured with HLA-B*44:02 for `VPRVHNQPQ` .
≤ 4.70

###

# assay system: HLA-A*02:19
# experimental protocol: IEDB peptide-MHC binding, purified MHC/direct/fluorescence; filed as Kd, often an IC50 or EC50 that approximates it; bounds were set here for any values at or beyond the usual limits of such assays
# settings: source organism: Limestone Canyon virus
pKd: −log10 of the molar value.
assay metric: pKd

Please report pKd for the following sequence: `ATKDSFQSF`
≤ 4.70

###

# assay system: HLA-A*02:01
# experimental protocol: IEDB peptide-MHC binding, purified MHC/competitive/fluorescence; bounds were set here for any values at or beyond the usual limits of such assays
# settings: source organism: Vaccinia virus
assay metric: pIC50
# pIC50: negative log10 of molar concentration; output just the value

Tell me measured pIC50 for `RMNSNQVCI` please.
5.46

###

# assay system: HLA-A*02:19
# experimental protocol: IEDB peptide-MHC binding, purified MHC/direct/fluorescence; filed as Kd, often an IC50 or EC50 that approximates it; bounds were set here for any values at or beyond the usual limits of such assays
# settings: source organism: Giardia lamblia ATCC 50803
assay metric: Kd

Using the record for `MHDPHSIPL` , state its measured Kd.
≥ 20 µM

###

# assay system: HLA-A*30:01
# experimental protocol: IEDB peptide-MHC binding, purified MHC/competitive/radioactivity; filed as Kd, often an IC50 or EC50 that approximates it; bounds were set here for any values at or beyond the usual limits of such assays
# settings: source organism: Mammarenavirus choriomeningitidis
assay metric: pKd
By convention, pKd is the negative base-10 log of a molar concentration.

Look up and report pKd, with HLA-A*30:01 as system, for `LVSFLLLAGR`
5.02

###

# assay system: HLA-B*58:01
# experimental protocol: IEDB peptide-MHC binding, purified MHC/competitive/fluorescence; filed as Kd, often an IC50 or EC50 that approximates it; bounds were set here for any values at or beyond the usual limits of such assays
# settings: source organism: Yersinia pestis Nepal516
assay metric: Kd (nM)
Value expressed in nM; do not type the unit.

Find the measured Kd of `STIVWSSRY` and report it.
170
